Assayed Target: T1, DLG3_1, Q92796
T1 sequence (Q92796 125-227, limits assumed, looked up): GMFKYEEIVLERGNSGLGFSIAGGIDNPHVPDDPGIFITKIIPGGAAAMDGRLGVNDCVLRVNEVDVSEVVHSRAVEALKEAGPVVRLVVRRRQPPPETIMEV
Test Details: holdup assay
Parameters: key: below the threshold = too weak to quantify, mostly under pKd 3.1 to 4
Assay Context: plain residues with an end cap or a label only (N-terminal biotin on a linker: ado-ado)

[
  {
    "Binder": "STYCDYTIEI [FAM71C, Q8NEG0]",
    "pKd": "below the threshold"
  },
  {
    "Binder": "EAVTVESTSL [SLC22A11, Q9NSA0]",
    "pKd": "below the threshold"
  },
  {
    "Binder": "DFKHTKSFII [JAM2, P57087]",
    "pKd": "below the threshold"
  },
  {
    "Binder": "TKDKVQETQI [LRRC4, Q9HBW1]",
    "pKd": 3.81
  },
  {
    "Binder": "NTALVESEDL [PALLS, Q8WX93;Q8WX93-1]",
    "pKd": "below the threshold"
  },
  {
    "Binder": "KKTPVSRSHL [SLC22A3, O75751]",
    "pKd": "below the threshold"
  },
  {
    "Binder": "KAEEKPPSKV [SCN4B, Q8IWT1]",
    "pKd": "below the threshold"
  },
  {
    "Binder": "LLQEEWETVM [PTH1R, Q03431]",
    "pKd": "below the threshold"
  },
  {
    "Binder": "SRPHTNETSL [MCC, P23508]",
    "pKd": "below the threshold"
  },
  {
    "Binder": "PALKNGQYWV [CSPG4, Q6UVK1]",
    "pKd": "below the threshold"
  },
  {
    "Binder": "LPPPESESKV [KCNJ9, Q92806]",
    "pKd": "below the threshold"
  },
  {
    "Binder": "DLLGGGSDSI [TNRC6B, Q9UPQ9]",
    "pKd": "below the threshold"
  },
  {
    "Binder": "RGKNRRQSIF [CDK18, Q07002]",
    "pKd": "below the threshold"
  },
  {
    "Binder": "QRYPGNQTTC [CCL24, O00175]",
    "pKd": "below the threshold"
  },
  {
    "Binder": "IKLETKKTKL [SLC15A2, Q16348]",
    "pKd": 3.69
  },
  {
    "Binder": "GNDPDRGTSI [GRID2, O43424]",
    "pKd": "below the threshold"
  },
  {
    "Binder": "GDSSRKEYFI [GYPC, P04921]",
    "pKd": "below the threshold"
  },
  {
    "Binder": "DSEEELPTRL [GRK6, P43250]",
    "pKd": "below the threshold"
  },
  {
    "Binder": "FVFESRKEIL [TBPL1, P62380]",
    "pKd": "below the threshold"
  },
  {
    "Binder": "THHRKIHTRV [ZNF599, Q96NL3]",
    "pKd": 4.48
  },
  {
    "Binder": "PLATCDETSI [SEMA4F, O95754]",
    "pKd": "below the threshold"
  },
  {
    "Binder": "QLGSPTADLA [SIPA1, Q96FS4]",
    "pKd": "below the threshold"
  },
  {
    "Binder": "PAALPESTHM [SLC9A3, P48764]",
    "pKd": "below the threshold"
  },
  {
    "Binder": "KSRPENGTVC [TMEM178B, H3BS89]",
    "pKd": "below the threshold"
  },
  {
    "Binder": "FHSIKQSTAV [CRHR1, P34998]",
    "pKd": 4.04
  },
  {
    "Binder": "DYSNLRETDI [ADRA1D, P25100]",
    "pKd": 3.6
  },
  {
    "Binder": "PSVYSRSQYV [CLDN8, P56748]",
    "pKd": "below the threshold"
  },
  {
    "Binder": "SAGADSETHC [SLCO1B1, Q9Y6L6]",
    "pKd": "below the threshold"
  },
  {
    "Binder": "PEKVSNTTVV [IGSF5, Q9NSI5]",
    "pKd": 3.83
  },
  {
    "Binder": "HLSTRQGTCV [ATRNL1, Q5VV63]",
    "pKd": 3.84
  },
  {
    "Binder": "GTMFLRETSL [GUCY1A2, P33402]",
    "pKd": "below the threshold"
  },
  {
    "Binder": "SSSVNVSSNL [CXCR1, P25024]",
    "pKd": "below the threshold"
  }
]
